tested on: MS2 coat protein; assay: apparent KD of MS2 coat protein; designed switch direction (-1 OFF switch, 1 ON switch): 1; higher = weaker reporter binding; settings: input ligand: none
So basically: apparent KD of MS2 coat protein at 200 nM or higher? That is 1.0. Lower than 200 nM? That is 0.0.

Sequence data	Assigned class
CUGAGCAAUCAAGGAUAUCACGUCGUUUAGACGUGAGAAGGUGAUCAUAACAUGAGGAUCACCCAUGUAUUACAUGAAGCUCAG [SSNG1/1-A3] (Eterna round: R96, puzzle: Same State NG 1)	1.0
GGUCGGACUCACAUGAGGAUCACCCAUGUUGGCGAAAGCCGGCAGGAUAUCUGUCCGAAAAGGUCAGAGAAGGGCUAACCGACC [Fiskers NG3ss - 60] (Eterna round: R96, puzzle: Same State NG 3)	0.0
UUACUCAUGUAAGGAUAUGCAGCCGAAACGGCUGCAGAAGGUACUAUAAUACAUGAGGAUCACCCAUGUAAAAUAAAUAAAGUU [Mat - Same State NG 1 - JL mod - D97] (Eterna round: R96, puzzle: Same State NG 1)	0.0
AUGAUUUAUGCAGGAUAUGAUUAACAUGAGGAUCACCCAUGUGGUGUUGUGAGUAAGGAGAGUGAUCAGAAGGGCAUUUUUUUU [JMF's solution 71] (Eterna round: R96, puzzle: Same State NG 2)	1.0
CCGCCGGGAACCCGGCGGAAACAUGAGGAUCACCCAUGUACACAGGAUAUCGUGACAUUAACAAACGAGAAGGGUGGCCGAGAC [Atre] (Eterna round: R96, puzzle: Same State NG 3)	0.0
AGCGAACAGUCCUCAAAGGCAACAUGAGGAUCACCCAUGUCAUAGGAUAUGCUAAAAGCUCAGUAGCAGAAGGAUGGAGGACUG [Edatusbe] (Eterna round: R96, puzzle: Same State NG 3)	0.0
CAGUAUCGCGGAGGAUAUGGGCUGAGACCGGAGCAACUCUGGUCAACAUGAGGAUCACCCAUGUCCCAGAAGGCCGCGAUGCUG [Enquoninso] (Eterna round: R96, puzzle: Same State NG 2)	0.0
CGGCGCUGUCGAGAGGAUAUGCGGUGACGGACAUGAGGAUCACCCAUGUUAGCGAUAGCGUUACGGUAGAAGGCUCUACAGUCGC [Soteed Omei mod 10] (Eterna round: R96, puzzle: Same State 2)	1.0
AAGAGGUCCGCAGGAUAUACCCGGCCUCGCCGGGUAGAAGGGUGAACCUCAUAACCCACCACACACAUGAGGAUCACCCAUGUA [Enisaon] (Eterna round: R96, puzzle: Same State NG 1)	0.0
GGUAGGUUACUACCAAUACAUGAGGAUCACCCAUGUUGUCAUGAGGAUAUGGUACCUAUUUGGUACCAGAAGGCAUGUAUAAUU [Fiskers NG3ss - 20] (Eterna round: R96, puzzle: Same State NG 3)	0.0
UGCUUCGUGUGAGGAUAUGCUGCCGUUUCGGCUGCAGAAGGUACUAUAAUACAUGAGGAUCACCCAUGUCUGUCGGUUUGCGGG [salish99_SSng1_r04_305-lowA] (Eterna round: R96, puzzle: Same State NG 1)	0.0
UUAAUGAAGUAAGGAUAUACAUGAGGAAUUCUCGUAGAAGGUACUAUACAUGAGGAUCACCCAUGUGCCGGUCAGAAGACUGGA [Mat - Same State NG 1 - JL mod - D11] (Eterna round: R96, puzzle: Same State NG 1)	1.0
UAAAUAAAGUAAGGAUAUACAUGAGGAUCUCUCGUAGAAGGUACUAUACAUGAGGAUCACCCAUGUGCCGGUCCGUAGACUGGA [Mat - Same State NG 1 - JL mod - D8] (Eterna round: R96, puzzle: Same State NG 1)	0.0
GGUAGGUUACUACCAAACAUGAGGAUCACCCAUGUAAGUGGGAAGGAUAUGGUACCUAAAAGGUACCAGAAGGUCCAUAUAGUU [Mat - Same State NG 3 - JL Mod - D99] (Eterna round: R96, puzzle: Same State NG 3)	1.0
AAACGAAACACGGCCACAUGAGGAUCACCCAUGUCGAGUUCACAGGAUAUACCUACGUCCUCGUGGUAGAAGGGUGAGGCUGUG [Rienat] (Eterna round: R96, puzzle: Same State NG 3)	1.0
GCUAGUAUAAUUGCUAACAUGAGGAUCACCCAUGUAUGUUGGCAGGAUAUCGUUUGCAAAGCAAACGAGAAGGGCUAAACUAGC [Mat - Same State NG 3 - JL Mod - D14] (Eterna round: R96, puzzle: Same State NG 3)	0.0
UAUGAAUUACAAGGAUAUUAAUAACAUGAGGAUCACCCAUGUGGCUGUGAGAGUUAGAUAAGCUAUAAGAAGGUGUGUGUGUUU [JR_SSNG2_Sub093] (Eterna round: R96, puzzle: Same State NG 2)	1.0
